Tested on: p21 induction in HCT116 cells
Assay: p21 induction in HCT116 cells
Format: cell-based
Conditions: Homo sapiens, HCT-116, 24 h, HCT116 cells, 24 h compound incubation; read-out: P21_EC50
pEC50: −log10 of the molar value.
quantity_kind: pEC50

Sample answers from the record:
{"columns": ["compound", "tested_system", "pEC50"],
 "data": [
  ["CCc1c(N2CCN(C(=O)c3ncnc(C)c3O)CC2)c(=O)c2nc(NC(C)=O)cnc2n1CC(=O)Nc1ccc(C(F)(F)F)cc1Cl [I-31]", "p21 induction in HCT116 cells", "< 5.30"],
  ["CCc1c([C@@]23CCN(C(=O)c4ncnc(C)c4O)C[C@@H]2C3)c(=O)c2nc(N(C)C)cnc2n1CC(=O)Nc1ccc(C(F)(F)F)cc1Cl (single isomer, unassigned) [I-276]", "p21 induction in HCT116 cells", "5.70 to 6.30"],
  ["CCc1c(N2CCN(C(=O)c3c(OCCOC)ncc(C)c3O)[C@H]3CC[C@@H]32)c(=O)c2nc(N(C)C)cnc2n1CC(=O)Nc1ccc(C(F)(F)F)cc1Cl [I-282]", "p21 induction in HCT116 cells", "> 6.30"],
  ["CCc1c(N2CCN(C(=O)c3ncnc(C)c3O)CC2)c(=O)c2nc(/C=C3\\CCC3C)cnc2n1CC(=O)Nc1ccc(C(F)(F)F)cc1Cl (stereo not drawn) [I-142]", "p21 induction in HCT116 cells", "5.70 to 6.30"],
  ["CCc1c(N2CCN(C(=O)c3ncnc(C)c3O)[C@H]3CC[C@@H]32)c(=O)c2nc(N(C)C)cnc2n1CC(=O)Nc1ccc(C(F)(F)F)cc1F [I-121]", "p21 induction in HCT116 cells", "> 6.30"]
]}

# input // fetch p21 induction in HCT116 cells pEC50 for CCc1c(N2CCN(C(=O)c3ncnc(C)c3O)CC2)c(=O)c2nc(-n3cccn3)cnc2n1CC(=O)Nc1ccc(C(F)(F)F)cc1Cl [I-201]
# output 5.30 to 5.70

# input Find pEC50 (p21 induction in HCT116 cells) for the entry CCc1c(N2CCN(C(=O)c3ncnc(C)c3O)[C@H]3CC[C@@H]32)c(=O)c2nc(C)c(C)nc2n1CC(=O)Nc1ccc(C(F)(F)F)cc1Cl [I-126]
# output > 6.30

# input Form field - read-out: pEC50; system: p21 induction in HCT116 cells; submitted item: CCOc1ncc(C)c(O)c1C(=O)N1CCN(c2c(CC)n(CC(=O)Nc3ccc(C(F)(F)F)cc3Cl)c3ncc(N(C)C)nc3c2=O)[C@H]2CC[C@@H]21 [I-275]
# output > 6.30

# input pEC50 of CCc1c(N2CCN(C(=O)c3ncnc(C)c3O)CC2)c(=O)c2nc(NC3CCC3)cnc2n1CC(=O)Nc1ccc(C(F)(F)F)cc1Cl [I-161] on p21 induction in HCT116 cells?
# output 5.30 to 5.70

# input API: value(readout=pEC50, system=p21 induction in HCT116 cells) for record CCc1c(N2CCN(C(=O)c3ncnc(C)c3O)[C@H]3CC[C@@H]32)c(=O)c2nc(N(C)C)cnc2n1CC(=O)Nc1ccc(OC(F)(F)F)cc1 [I-120]
# output > 6.30

# input Notebook: pull reported pEC50 for p21 induction in HCT116 cells, entry CCc1c(N2CCN(C(=O)c3nccc(F)c3O)CC2)c(=O)c2nc(N(C)C)cnc2n1CC(=O)Nc1ccc(C(F)(F)F)cc1Cl [I-212]
# output 5.70 to 6.30

# input State its pEC50 on p21 induction in HCT116 cells: CCc1c(N2CCN(C(=O)c3c(OC)ncc(OC)c3O)[C@H]3CC[C@@H]32)c(=O)c2nc(N(C)C)cnc2n1CC(=O)Nc1ccc(C(F)(F)F)cc1Cl [I-274]
# output > 6.30
